- Tested target: Ba/F3 ERBB2 A775_G776insYVMA (Homo sapiens, UniProt P04626, DUP772-775, cells depend on it)
- Sequence (P04626 with tags, fused parts or gaps DUP772-775): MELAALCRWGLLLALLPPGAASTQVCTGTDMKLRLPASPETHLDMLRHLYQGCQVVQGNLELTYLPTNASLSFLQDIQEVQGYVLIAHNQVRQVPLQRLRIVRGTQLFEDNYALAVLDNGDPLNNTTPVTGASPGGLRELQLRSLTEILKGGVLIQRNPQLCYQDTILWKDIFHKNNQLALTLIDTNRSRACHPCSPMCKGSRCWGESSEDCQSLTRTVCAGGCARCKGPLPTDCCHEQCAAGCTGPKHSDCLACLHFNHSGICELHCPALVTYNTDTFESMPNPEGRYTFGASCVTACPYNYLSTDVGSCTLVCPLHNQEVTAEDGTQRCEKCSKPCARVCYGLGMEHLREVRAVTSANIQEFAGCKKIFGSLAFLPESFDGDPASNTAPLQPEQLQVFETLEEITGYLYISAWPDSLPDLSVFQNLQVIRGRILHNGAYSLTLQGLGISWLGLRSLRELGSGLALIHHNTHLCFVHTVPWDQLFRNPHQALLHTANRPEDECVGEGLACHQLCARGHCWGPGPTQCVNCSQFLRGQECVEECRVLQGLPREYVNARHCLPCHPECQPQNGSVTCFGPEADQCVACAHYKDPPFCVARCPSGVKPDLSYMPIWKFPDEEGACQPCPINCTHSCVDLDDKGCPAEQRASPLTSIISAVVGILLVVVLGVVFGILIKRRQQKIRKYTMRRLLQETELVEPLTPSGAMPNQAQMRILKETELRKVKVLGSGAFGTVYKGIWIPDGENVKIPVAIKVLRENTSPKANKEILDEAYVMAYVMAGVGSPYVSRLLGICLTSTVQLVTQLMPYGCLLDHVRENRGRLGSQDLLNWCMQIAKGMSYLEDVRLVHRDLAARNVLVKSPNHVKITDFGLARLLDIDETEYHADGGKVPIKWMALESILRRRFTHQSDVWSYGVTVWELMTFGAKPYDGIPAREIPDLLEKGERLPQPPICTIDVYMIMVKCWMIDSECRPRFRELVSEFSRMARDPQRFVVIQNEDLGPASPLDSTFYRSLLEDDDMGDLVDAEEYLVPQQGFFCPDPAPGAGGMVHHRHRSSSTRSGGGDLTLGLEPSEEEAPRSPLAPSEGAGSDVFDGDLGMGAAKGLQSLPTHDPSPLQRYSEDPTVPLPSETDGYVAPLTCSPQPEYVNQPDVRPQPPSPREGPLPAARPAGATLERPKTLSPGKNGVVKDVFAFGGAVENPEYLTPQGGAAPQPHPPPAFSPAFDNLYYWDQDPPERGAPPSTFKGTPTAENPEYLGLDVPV
- Experiment summary: Cell viability assay, Ba/F3 ERBB2 A775_G776insYVMA
- Assay type: cell-based, mouse
- Stated conditions: Ba/F3 ERBB2 YVMA cells, cell viability, 72 hours, CellTiter Glo; Table B5; read-out: Ba/F3 ERBB2 YVMA, IC50

| Molecule | GI50, nM |
| --- | --- |
| Cc1cc(Nc2ncnc3cnc(N4CC/C(=C\CN(C)C)C4=O)cc23)ccc1Oc1ccc2c(c1)ncn2C | 1.79 |
| CC1CN(c2cc3c(Nc4ccc(Oc5ccc6c(c5)nnn6C)c(F)c4)ncnc3cn2)C(=O)/C1=C/CN(C)C (single isomer, unassigned) [Example S117, Enantiomer #1] | 12 |
| [2H]C([2H])([2H])N(C/C=C1\CCN(c2ccc3ncnc(Nc4ccc(Oc5ccc6c(c5)ncn6C([2H])([2H])[2H])c(C)c4)c3n2)C1=O)C([2H])([2H])[2H] | 2.99 |
| C=C1C(=O)N(c2ccc3ncnc(Nc4ccc(Cc5ccn6ncnc6c5)c(C)c4)c3c2)C[C@H]1C | 80.5 |
| Cc1cc(Nc2ncnc3ccc(N4CC/C(=C\CN(C)C)C4=O)nc23)c(F)cc1Oc1ccn2ncnc2c1 | 2.92 |
| CCc1ccc(Oc2ccc(Nc3ncnc4cnc(N5CC/C(=C\CN(C)C)C5=O)cc34)cc2C)cn1 | 22 |
| CCn1cnc2cc(Oc3ccc(Nc4ncnc5ccc(N6CC/C(=C\CN(C)C)C6=O)nc45)cc3C)ccc21 | 36.4 |
| Cc1cc(Nc2ncnc3ccc(N4CC/C(=C\CN(C)C)C4=O)nc23)ccc1Oc1cccnc1 | 4.36 |
| C=C1C(=O)N(c2cc3c(Nc4ccc(Oc5ccn6ncnc6c5)c(C)c4)ncnc3cn2)C2CC12 (single isomer, unassigned; enantiomer 1) [Example S40, Enantiomer # 1] | 3.47 |

====

- Tested target: Ba/F3 ERBB2 A775_G776insYVMA (Homo sapiens, UniProt P04626, DUP772-775, cells depend on it)
- Experiment summary: Cell viability assay, Ba/F3 ERBB2 A775_G776insYVMA
- Assay type: cell-based, mouse
- Stated conditions: Ba/F3 ERBB2 YVMA cells, cell viability, 72 hours, CellTiter Glo; Table B5; read-out: Ba/F3 ERBB2 YVMA, IC50
Threshold-based label: GI50 under 3 nM gives label 1, GI50 not under 3 nM gives label 0.

| Molecule | Cat |
| --- | --- |
| CC1CN(c2ccc3ncnc(Nc4ccc(Oc5ccn6ncnc6c5)c(F)c4)c3n2)C(=O)/C1=C/CN(C)C (single isomer, unassigned) [Example S127, Enantiomer #1] | label 1 |
| Cc1cc(Nc2ncnc3ccc(N4CC/C(=C\CN(C)C)C4=O)nc23)ccc1Oc1ccc2ocnc2c1 | label 1 |
| Cc1cc(Nc2ncnc3ccc(N4CC(C)/C(=C\CN(C)C)C4=O)nc23)ccc1Oc1ccc2c(c1)ncn2C (single isomer, unassigned; enantiomer 2) [Example S58, Enantiomer # 2] | label 0 |
| Cc1cc(Nc2ncnc3ccc(N4CC(C)/C(=C\CN(C)C)C4=O)nc23)ccc1Oc1ccc2c(c1)ncn2C (single isomer, unassigned; enantiomer 1) [Example S58, Enantiomer # 1] | label 1 |
| Cc1cc(Nc2ncnc3ccc(N4CC/C(=C\[C@H](C)N(C)C)C4=O)nc23)ccc1Oc1ccn2ncnc2c1 | label 0 |
| CC1CN(c2cc3c(Nc4ccc(Oc5ccc6c(c5)nnn6C)cc4)ncnc3cn2)C(=O)/C1=C/CN(C)C (single isomer, unassigned) [Compound 137] | label 0 |
